Kindly supply the reported pKa values for the records listed here.
# CONDITION_NOTES: acidic group
Give bare numbers.

- Cc1cc(O)ccc1[N+](C)(C)C: 8.34
- O=C1Nc2ccccc2C1=O: 11.9
- CNC(=O)c1ccccc1O: 8.03

Each of the following entries comes with a recorded value; kindly state pKa for each.
1. CCC1(c2ccccc2)C(=O)NC(=S)N(C)C1=O (stereo not given)
2. COc1ccc(S(N)(=O)=O)cc1

Ans.
1: 7.65; 2: 9.93

Working through the 2 compounds below one at a time, give pKa for each.
1. N/C(=N\O)c1ncnc2nc[nH]c12
2. O=C(O)CC(c1[nH]cc[nH+]1)c1[nH]cc[nH+]1

Ans.
[9.4, 2.79]

Working through the 8 compounds below one at a time, give pKa for each.
1. Cc1cc(C(=O)O)ccc1[N+](=O)[O-]
2. CC(=O)NO
3. CCOC(=O)C(Cc1ccc(C)cc1)C(C)=O (stereo not given)
4. [NH3+]C(Cc1ccc[nH+]c1)C(=O)O (stereo not given)
5. Cc1ccc(O)c([N+](=O)[O-])c1
6. O=C([O-])/C=N/O
7. Nc1ccc(-c2ccc(/N=C/c3ccc(O)cc3)cc2)cc1
8. C/C(=N\O)C(=O)CO

Ans.
3.65
9.07
11.9
1.69
7.4
10.2
9.5
9.16
